- system_name: human TGR5 (Homo sapiens)
- Construct: expressed in transfected cells; host or cells: HEK293
- protocol_description: Cell-based TGR5 assay (cAMP generation, HTRF)
- assay_setup: HEK293 cells stably transfected with human TGR5; cAMP by HTRF; 30 minutes at 37° C.; read-out: pEC50 Human TGR5 (converted)
EC50 values for the molecules below.

[
  {
    "molecule": "Cc1ccc(SCCCC(=O)NC[C@H](O)[C@@H](O)[C@H](O)[C@H](O)CO)nc1CNC1(c2cnccc2-c2ccccc2OC2CC2)CC1",
    "EC50": "1260 to 10000 nM"
  },
  {
    "molecule": "CC(=O)NCCCN(CCCSc1ccc(Cl)c(COC2(c3cnccc3-c3ccccc3OC3CC3)CC2)c1)C(=O)[C@@H](O)[C@@H](O)[C@H](O)[C@@H](O)CO",
    "EC50": "< 100 nM"
  },
  {
    "molecule": "Cc1ccc(SCCCN(CCCS(C)(=O)=O)C(=O)[C@@H](O)[C@@H](O)[C@H](O)[C@@H](O)CO)cc1COC1(c2cnccc2-c2ccccc2OC2CC2)CC1",
    "EC50": "126 to 1000 nM"
  },
  {
    "molecule": "O=C(CCCCc1cc(Cl)c(COC2(c3cnccc3-c3ccccc3OC3CC3)CC2)cc1Cl)NCC1O[C@H](CO)[C@@H](O)[C@H](O)[C@H]1O (stereo partly drawn)",
    "EC50": "< 100 nM"
  },
  {
    "molecule": "Cc1ccc(C(F)(F)F)cc1CNC1(c2cnccc2-c2ccccc2OC2CC2)CC1",
    "EC50": "< 100 nM"
  },
  {
    "molecule": "CSc1ccc(Cl)c(CNC2(c3cnccc3-c3ccccc3OC3CC3)CC2)c1",
    "EC50": "< 100 nM"
  }
]

---

EC50 values for the compounds below.
- system_name: human TGR5 (Homo sapiens, UniProt Q8TDU6)
- Construct: expressed in transfected cells; host or cells: HEK293
- Sequence (Q8TDU6 whole entry): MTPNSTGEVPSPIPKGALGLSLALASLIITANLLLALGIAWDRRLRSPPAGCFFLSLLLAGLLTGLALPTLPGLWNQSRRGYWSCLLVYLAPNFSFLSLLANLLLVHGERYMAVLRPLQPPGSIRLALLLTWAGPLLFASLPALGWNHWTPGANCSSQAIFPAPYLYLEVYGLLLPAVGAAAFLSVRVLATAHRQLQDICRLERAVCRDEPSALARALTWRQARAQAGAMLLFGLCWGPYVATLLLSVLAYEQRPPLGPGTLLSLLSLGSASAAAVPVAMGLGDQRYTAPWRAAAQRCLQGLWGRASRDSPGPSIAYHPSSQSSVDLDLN
- protocol_description: Cell-based TGR5 assay (cAMP generation, HTRF)
- assay_setup: HEK293 cells stably transfected with human TGR5; cAMP by HTRF; 30 minutes at 37° C.; read-out: pEC50 Human TGR5 (converted)
measurement_label: EC50

[
  {
    "compound": "CCN(C[C@H](O)[C@@H](O)[C@H](O)[C@H](O)CO)C(=O)CCCSc1ccc(Cl)c(COC2(c3cnccc3-c3ccccc3OC3CC3)CC2)c1",
    "test_result": "< 100 nM"
  },
  {
    "compound": "COCCCN(CCCC(C)c1ccc(Cl)c(CNC2(c3cnccc3-c3ccccc3OC3CC3)CC2)c1)C(=O)[C@@H](O)[C@@H](O)[C@H](O)[C@@H](O)CO (some centres unmarked)",
    "test_result": "< 100 nM"
  },
  {
    "compound": "CN(C[C@H](O)[C@@H](O)[C@H](O)[C@H](O)CO)C(=O)CN1CCN(C(=O)CCCCc2cc(Cl)c(COC3(c4cnccc4-c4ccccc4OC4CC4)CC3)cc2Cl)CC1",
    "test_result": "< 100 nM"
  },
  {
    "compound": "CN(C[C@H](O)[C@@H](O)[C@H](O)[C@H](O)CO)C(=O)CCN(CCC(=O)N(C)C[C@H](O)[C@@H](O)[C@H](O)[C@H](O)CO)C(=O)CCCCc1cc(Cl)c(CNC2(c3cnccc3-c3ccccc3OC3CC3)CC2)cc1Cl",
    "test_result": "1260 to 10000 nM"
  },
  {
    "compound": "O=C(COC1CN(S(=O)(=O)c2ccc(Cl)c(COC3(c4cnccc4-c4ccccc4OC4CC4)CC3)c2)C1)NC[C@H](O)[C@@H](O)[C@H](O)[C@H](O)CO",
    "test_result": "126 to 1000 nM"
  },
  {
    "compound": "COCCN(CCCCNC(=O)NC[C@H](O)[C@@H](O)[C@H](O)[C@H](O)CO)S(=O)(=O)c1ccc(Cl)c(COC2(c3cnccc3-c3ccccc3OC3CC3)CC2)c1 (stereo in doubt)",
    "test_result": "< 100 nM"
  },
  {
    "compound": "O=C([C@@H](O)[C@@H](O)[C@H](O)[C@@H](O)CO)N(CCCSc1ccc(Cl)c(CNC2(c3cnccc3-c3ccccc3OC3CC3)CC2)c1)C1CCS(=O)(=O)CC1",
    "test_result": "1260 to 10000 nM"
  },
  {
    "compound": "Clc1ccc(Cl)c(CNC2(c3cnccc3-c3ccccc3OC3COC3)CC2)c1",
    "test_result": "< 100 nM"
  },
  {
    "compound": "CSc1cnc(CNC2(c3cnccc3-c3ccccc3OC3CC3)CC2)c(C)c1",
    "test_result": "126 to 1000 nM"
  },
  {
    "compound": "COc1cc(Cl)c(COC2(c3cnccc3-c3ccccc3OC3CC3)CC2)cc1S(=O)(=O)N(C)C",
    "test_result": "< 100 nM"
  },
  {
    "compound": "O=C([C@@H](O)[C@@H](O)[C@H](O)[C@@H](O)CO)N(CCCSc1ccc(Cl)c(CNC2(c3cnccc3-c3ccccc3OC3CC3)CC2)c1)CCOCCO",
    "test_result": "126 to 1000 nM"
  }
]

The values you see were collected from patent US12084472B2.
